# Tested on: Radical scavenging activity
# assay_procedure: Antioxidant activity assessed as DPPH radical scavenging activity after 30 mins by spectrometric assay method
# Type: functional
Give measured IC50 for each item. Keep answers brief.
Answer shape: numeric part, then the unit.

INSERT INTO results (compound, target_entity, reported) VALUES
  ('Cc1c(C)c2c(c(C)c1O)CC[C@@](C)(CCC[C@H](C)CCC[C@H](C)CCCC(C)C)O2 [ALPHA-TOCOPHEROL]', 'Radical scavenging activity', '25 µg/mL'),
  ('COc1ccc(O)c(C(C)(C)C)c1.COc1ccc(O)cc1C(C)(C)C [BUTYLATED HYDROXYANISOLE]', 'Radical scavenging activity', '29 µg/mL'),
  ('O=C1O[C@H]([C@@H](O)CO)C(O)=C1O [ASCORBIC ACID]', 'Radical scavenging activity', '48 µg/mL');

INPUT: Supply IC50 value. Item: O=C1/C(=C/c2ccc(OCc3cc(OCc4cc(OCc5ccc(-n6c7ccccc7c7ccccc76)cc5)cc(OCc5ccc(-n6c7ccccc7c7ccccc76)cc5)c4)cc(OCc4cc(OCc5ccc(-n6c7ccccc7c7ccccc76)cc5)cc(OCc5ccc(-n6c7ccccc7c7ccccc76)cc5)c4)c3)cc2)CCC/C1=C\c1ccc(OCc2cc(OCc3cc(OCc4ccc(-n5c6ccccc6c6ccccc65)cc4)cc(OCc4ccc(-n5c6ccccc6c6ccccc65)cc4)c3)cc(OCc3cc(OCc4ccc(-n5c6ccccc6c6ccccc65)cc4)cc(OCc4ccc(-n5c6ccccc6c6ccccc65)cc4)c3)c2)cc1
OUTPUT: 48 µg/mL

meta.source: ChEMBL document CHEMBL1154854
